Target: Human UII (U-II receptor) in 6D9 human rhabdomyosarcoma cells (Homo sapiens)
Construct: 6D9: isolated by dilution subcloning of RMS13 cells, ATCC® Number: CRL-2061; host or cells: 6D9 human rhabdomyosarcoma cells (subclone of RMS13)
Sequence (Q9UKP6 1-389): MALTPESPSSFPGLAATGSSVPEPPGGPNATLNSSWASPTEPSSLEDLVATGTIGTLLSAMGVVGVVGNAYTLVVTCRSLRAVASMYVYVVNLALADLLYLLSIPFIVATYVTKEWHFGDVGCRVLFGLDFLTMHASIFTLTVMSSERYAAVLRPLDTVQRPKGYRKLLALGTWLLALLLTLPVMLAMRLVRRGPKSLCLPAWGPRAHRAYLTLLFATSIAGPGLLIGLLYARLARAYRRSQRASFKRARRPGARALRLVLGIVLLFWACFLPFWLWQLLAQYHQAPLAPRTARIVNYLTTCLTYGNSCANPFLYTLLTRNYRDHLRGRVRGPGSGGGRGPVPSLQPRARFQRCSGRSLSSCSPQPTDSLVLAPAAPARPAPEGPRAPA
Experiment: Human UII Calcium Mobilization Assay
Assay type: cell-based
Details: 6D9 human rhabdomyosarcoma cells, FLIPR TETRA, average; read-out: Human UII Ca+ Mobilization Average IC50
pIC50: −log10 of the molar value.
measured.parameter: pIC50

>>> quantitative_readout("CCN1CCN(c2cccc3c2CN(C(CC2CCN(S(=O)(=O)O)CC2)c2ccc(OC)c(OC)c2)C3=O)CC1 (stereo not drawn)")
6.18
>>> quantitative_readout("CCN1CCC(c2cccc3c2CN([C@H](CCCN(C)S(=O)(=O)c2cccs2)c2ccc(OC)c(OC)c2)C3=O)CC1")
6.16
>>> quantitative_readout("CCN1CCN(c2cccc3c2CN([C@H](CCCN(C)S(=O)(=O)c2cn(C)c(C)n2)c2ccc(OC)c(OC)c2)C3=O)CC1")
6.01
